As shown below, each of these compounds has a reported inhibition zone (IZ) value.
Tested on: Staphylococcus epidermidis
Assay: Inhibition of DHPS in Staphylococcus epidermidis assessed as antibacterial activity by measuring inhibition zone at 5 mg/mL incubated for 24 hrs by disk diffusion method

Consider the following illustrative entries.
CCS/C(Nc1ccccc1)=C(\C#N)C(=O)Nc1ccc(S(=O)(=O)Nc2onc(C)c2C)cc1    10.1 mm
C=CCN/C(S[C@@H]1O[C@H](COC(C)=O)[C@@H](OC(C)=O)[C@H](OC(C)=O)[C@H]1OC(C)=O)=C(/C#N)C(=O)Nc1ccc(S(=O)(=O)Nc2onc(C)c2C)cc1    25.6 mm
C=CCN/C(SCC)=C(/C#N)C(=O)Nc1ccc(S(=O)(=O)Nc2onc(C)c2C)cc1    24.2 mm
CCN/C(S[C@@H]1O[C@H](COC(C)=O)[C@H](OC(C)=O)[C@H](OC(C)=O)[C@H]1OC(C)=O)=C(/C#N)C(=O)Nc1ccc(S(=O)(=O)Nc2onc(C)c2C)cc1    16.3 mm
CCN/C(S[C@@H]1O[C@H](COC(C)=O)[C@@H](OC(C)=O)[C@H](OC(C)=O)[C@H]1OC(C)=O)=C(/C#N)C(=O)Nc1ccc(S(=O)(=O)Nc2onc(C)c2C)cc1    24.7 mm

Summary for this compound, CN/C(S)=C(/C#N)C(=O)Nc1ccc(S(=O)(=O)Nc2onc(C)c2C)cc1 : inhibition zone (IZ) is 20.8 mm

Sample Cc1noc(NS(=O)(=O)c2ccc(NC(=O)c3c(N)n[nH]c3Nc3ccccc3)cc2)c1C ; inhibition zone (IZ) observed: 13.4 mm

* * *

Tested on: Klebsiella pneumoniae
Test: Inhibition of DHPS in Klebsiella pneumoniae assessed as antibacterial activity by measuring inhibition of bacterial growth incubated for 24 hrs by microbroth dilution method
Each entry below carries its recorded MIC.
Write the value in µg/mL as a bare number.

Please review the following examples before continuing.
CCS/C(NC)=C(\C#N)C(=O)Nc1ccc(S(=O)(=O)Nc2onc(C)c2C)cc1    1.95
CCN/C(S[C@@H]1O[C@H](COC(C)=O)[C@@H](OC(C)=O)[C@H](OC(C)=O)[C@H]1OC(C)=O)=C(/C#N)C(=O)Nc1ccc(S(=O)(=O)Nc2onc(C)c2C)cc1    0.98
CCN/C(S)=C(/C#N)C(=O)Nc1ccc(S(=O)(=O)Nc2onc(C)c2C)cc1    62.5
C=CCN/C(SCC)=C(/C#N)C(=O)Nc1ccc(S(=O)(=O)Nc2onc(C)c2C)cc1    0.25
C=CCN/C(S)=C(/C#N)C(=O)Nc1ccc(S(=O)(=O)Nc2onc(C)c2C)cc1    0.49

Next compound, please.
// MIC lookup, compound = CCN/C(S[C@@H]1O[C@H](COC(C)=O)[C@H](OC(C)=O)[C@H](OC(C)=O)[C@H]1OC(C)=O)=C(/C#N)C(=O)Nc1ccc(S(=O)(=O)Nc2onc(C)c2C)cc1 , result: 7.81

Values were extracted from ChEMBL document CHEMBL4627352.
